# Tested on: NCI-H226 lung
# Experimental Protocol: NCI-60 one-dose screen, 48 h (100 = growth as untreated, 0 = no growth, -100 = all killed)
# Condition Label: 10 µM unless noted
This is part of a sample that, as a whole, favours compounds with a hit. Of some 83,000 tested, about 20% had one in any assay.
Parameter: growth (%)
State just the number; it will be interpreted in %.

Study these solved cases before continuing.
| Compound | growth (%) |
| --- | --- |
| Cc1cc(N(CCCNc2ccnc3cc(Cl)ccc23)Cc2ccco2)nc(N2CCN(C)CC2)n1 | 88.3 |
| CCN(CC)CCCCCNc1cc(OC(=O)c2ccccc2)cc2cccnc12 | 118 |
| COC(=O)[C@]12CC[C@@H](C)[C@H](C)[C@@H]1C1=CC[C@@H]3[C@@]4(C)C(c5ncon5)=C[C@@](C)(CO)C4=CC[C@@]3(C)[C@]1(C)CC2 | -34.7 |
| c1ccc(C2Cc3ccccc3C2=NC2CCCCC2)cc1 (centres undefined) | 100 |
| COc1ccc(C2C(C#N)=C(N)Oc3c2sc2c(F)cccc32)cc1 (centres undefined) | 76 |
| C/C(=N\Nc1ccc2ccccc2n1)c1ccccn1 | 0.47 |
| N#C/C(=C\c1ccc(-c2cccc(C(F)(F)F)c2)o1)c1nc(-c2ccco2)cs1 | 84.1 |
| COc1cc2nc(Cl)nc(Nc3cccc(C(=O)/C=C/c4ccccc4)c3)c2cc1OC | 66.1 |
| O=c1c(CNc2ccc(S(=O)(=O)Nc3nccs3)cc2)coc2ccccc12 | 96.1 |
| Cn1cc(-c2nc(-c3cn(C)c4ncccc34)cs2)c2ccccc21 | 66.9 |

Data request: Fill in: growth of Cc1c(C)c2c(c(C)c1NC(=O)CCCCCCC(=O)O)CCC(C)(CCCC(C)CCCC(C)CCCC(C)C)O2 (centres undefined) is ___
Data returned: 95.2

Data request: Also, "O=C1C(Cl)=C(Nc2ccc(S(=O)(=O)c3ccc(NC4=C(Cl)C(=O)c5ccccc5C4=O)cc3)cc2)C(=O)c2ccccc21" please.
Data returned: 91.2

Data request: Also, COc1ccc(/C=C/C(=O)NCC(C)O)cc1 (centres undefined) please.
Data returned: 91.5

Data request: Also, "CC(C)C[C@@H](NC(=O)[C@@H](Cc1ccccc1)NC(=O)c1cnccn1)B1O[C@H]2[C@H](O)[C@@H](C(=O)NCCCC[C@@H]3NC(=O)[C@@H](Cc4ccccc4)NC(=O)[C@H](CC(=O)O)NC(=O)CNC(=O)[C@H](CCCN=C(N)N)NC3=O)O[C@@H](CN)[C@H]2O1" please.
Data returned: -45.8

meta.source: PubChem BioAssay (NCI)
